TGI by entry:
System: DMS 114 small cell lung
procedure.summary: NCI tumour cell line growth inhibition, 48 h

- compound: "Nc1nc(NC(=O)C2=NS(=O)(=O)c3cc(S(N)(=O)=O)c(Cl)cc3N2)n[nH]1"
  reading.qualifier: ">"
  TGI (µM): 100
- compound: "O=C(NC(c1ccccc1)C(O)C(=O)OCc1ccc2c(c1)C(=O)c1ccccc1C2=O)c1ccccc1 (centres undefined)"
  reading.qualifier: ">"
  TGI (µM): 100
- compound: "CCCCCC1C2C(=O)NC(=O)C1C(=O)NC2=O (centres undefined)"
  reading.qualifier: ">"
  TGI (µM): 100
- compound: "COc1ccc(C2Oc3cc(OC)c(O)cc3[C@@H]2C)cc1 (some centres undefined)"
  reading.qualifier: "="
  TGI (µM): 40.3
- compound: "COc1cc(/C=C/C(=O)C(C)(C)C)cc(OC)c1OC"
  reading.qualifier: "="
  TGI (µM): 71.5
- compound: "Cc1nn(C(=O)CC(=O)Nc2ccccc2Cl)c(C)c1N=Nc1ccccc1Cl"
  reading.qualifier: ">"
  TGI (µM): 100
- compound: "O=C(Nc1cccc(Cl)c1)c1cc2cc(N=Nc3ccc(Br)cc3)ccc2oc1=O"
  reading.qualifier: "="
  TGI (µM): 56.6
- compound: "COc1nc(NC2OCC(OC(C)=O)C(OC(C)=O)C2OC(C)=O)c(N=C(C)C(C)=O)c(=O)n1C (centres undefined)"
  reading.qualifier: ">"
  TGI (µM): 100
- compound: "CC(C)CCC[C@@H](C)[C@H]1CC[C@H]2[C@@H]3CC=C4CC(OCCCCN(O)CCCSC5OC(CO)C(O)C(O)C5O)CC[C@]4(C)[C@H]3CC[C@]12C (some centres undefined)"
  reading.qualifier: "="
  TGI (µM): 45.6

###

Tested on: A549 NSCLC
procedure.summary: NCI tumour cell line growth inhibition, 48 h
TGI by entry:

- molecule: "O=C(C(Cl)=C(Nc1ccccc1)Nc1ccccc1)C(Cl)Cl"
  TGI: "> 100 µM"
- molecule: "CCN(CC)CCC(CNc1c2ccc(Cl)cc2nc2ccc(OC)cc12)c1ccccc1 (stereo unspecified)"
  TGI: "3.49 µM"
- molecule: "Cc1nc2cc(NC(=O)CN3CCN(CCN4C(=O)c5cccc6cccc(c56)C4=O)CC3)ccc2s1"
  TGI: "19.2 µM"
- molecule: "O=C1c2ccccc2CC1C1(O)C(=O)Nc2c(Cl)cc(Cl)cc21 (stereo unspecified)"
  TGI: "> 100 µM"
- molecule: "C[N+]12C=CC=C1C(N1CCCC1)c1sc(-c3ccc(Cl)cc3)cc12 (stereo unspecified)"
  TGI: "87.6 µM"
- molecule: "COC(=O)c1ccc2[nH]c3c(c2c1)CC(=O)Nc1ccccc1-3"
  TGI: "> 100 µM"
- molecule: "CN1CCN(c2nc3c(c(=O)n(C)c(=O)n3C)n2C)CC1"
  TGI: "> 100 µM"
- molecule: "C=CC(=O)N1CC[C@@H](Oc2nc(Nc3ccc(N4CCC(N5CCN(C)CC5)CC4)cc3)c(C(N)=O)nc2CC)C1"
  TGI: "> 100 µM"
- molecule: "Cc1nn(-c2ccccc2)c2ncc3c(c12)C(=O)N(Cc1ccccc1)C3=O"
  TGI: "> 100 µM"
- molecule: "Cc1ccc(S(=O)(=O)NC2(C=O)CCC(C(C)(C)C)CC2)cc1 (stereo unspecified)"
  TGI: "> 100 µM"
- molecule: "Clc1ccc(CCn2ccc3ccccc32)c(Cl)c1"
  TGI: "> 100 µM"
- molecule: "COc1c(C)cnc(Cn2cnc3c(Cl)nc(N)nc32)c1C"
  TGI: "> 100 µM"
- molecule: "CC(C)(O)C1CC(=O)C(C)(C2C(O)CC3(C)C4CC=C5C(CCC(O)C5(C)C)C4(C)C(=O)CC23C)O1 (stereo unspecified)"
  TGI: "> 100 µM"
- molecule: "CCN(CC)CCCC(C)NC(=S)N/N=C(\\C)c1ccccn1 (stereo unspecified)"
  TGI: "> 100 µM"
- molecule: "C/C(=C1/N=C(c2ccccc2)OC1=O)c1cccs1"
  TGI: "> 100 µM"
- molecule: "COc1ccc(N=Nc2ccc3oc(=O)c(C(=O)Nc4ccc(OC)cc4)cc3c2)cc1"
  TGI: "> 100 µM"
- molecule: "Cc1ccc(-c2cn3c(nc4ccccc43)c(C)n2)cc1"
  TGI: "> 100 µM"
- molecule: "COc1ccc(/C=C2\\CN(Cc3cn(CCCNc4ccnc5cc(Cl)ccc45)nn3)C/C(=C\\c3ccc(OC)cc3)C2=O)cc1"
  TGI: "19.5 µM"
- molecule: "O=[N+]([O-])c1ccc(-c2ccc(C3=Nn4c(nnc4-c4ccc(Cl)cc4)SC3)o2)cc1"
  TGI: "> 100 µM"
- molecule: "COc1cc(/C=C/C(=O)C(C)(C)C)cc(OC)c1OC"
  TGI: "> 100 µM"
- molecule: "O=C(CSCC(=O)N/N=C\\c1cc(Br)cc(Br)c1O)N/N=C\\c1cc(Br)cc(Br)c1O"
  TGI: "> 100 µM"

###

Test system: HCT-116 colon
procedure.summary: NCI tumour cell line growth inhibition, 48 h
endpoint: TGI (µM)

- molecule: "C/C=C\\C(C)=C/C(C)C(=O)CC(O)CC1CC(=O)NC(=O)C1 (centres undefined)"
  reading.qualifier: ">"
  readout.number: 100
- molecule: "O=c1[nH]c2cccccc-2c1-c1nc2ccccc2[nH]1"
  reading.qualifier: ">"
  readout.number: 100
- molecule: "CC[N+]1(C)CCC(O)(/C=C/c2ccccc2)C(C(=O)/C=C/c2ccccc2)C1 (centres undefined)"
  reading.qualifier: "="
  readout.number: 38
- molecule: "O=C1c2cccc3cc4ccccc4c(c23)C(=O)N1CCCNCCNCCCN1C(=O)c2cccc3cc4ccccc4c(c23)C1=O"
  reading.qualifier: "="
  readout.number: 0.168
- molecule: "COC(=O)[C@@H](C)C[C@H](Cc1ccccc1)NC(=O)c1cccc([C@@H](C[C@H](C(C)C)N(C)C(=O)[C@@H](NC(=O)[C@H]2CCCCN2C)C(C)C)OC(C)=O)n1"
  reading.qualifier: ">"
  readout.number: 6.68
- molecule: "Nc1n[nH]c(=O)c2c1c(Br)cn2C1OC(CO)C(O)C1O (centres undefined)"
  reading.qualifier: ">"
  readout.number: 40.6
- molecule: "Nc1nc(N)c2nn(-c3ccc(C(=O)O)cc3)nc2n1"
  reading.qualifier: ">"
  readout.number: 100
- molecule: "CC(C)(C)OC(=O)N1CC(COS(C)(=O)=O)c2ccc(O)cc21 (centres undefined)"
  reading.qualifier: "="
  readout.number: 10.3
- molecule: "O=C(NC(c1ccccc1)C(O)C(=O)OCc1ccc2c(c1)C(=O)c1ccccc1C2=O)c1ccccc1 (centres undefined)"
  reading.qualifier: "="
  readout.number: 39.1

###

TGI by entry:
Tested on: SF-295 CNS
procedure.summary: NCI tumour cell line growth inhibition, 48 h

- smiles.input: "CCN1CCc2sc3[nH]c(=S)n(C)c(=O)c3c2C1"
  study.target: "SF-295 CNS"
  TGI: "> 100 µM"
- smiles.input: "Cn1c([N+](=O)[O-])cnc1/C=C1\\Oc2ccc(Cl)cc2C1=O"
  study.target: "SF-295 CNS"
  TGI: "5.65 µM"
- smiles.input: "COc1ccc(/C=N/NC(=O)c2ccccc2Nc2ccccc2C(=O)N/N=C/c2ccc(OC)c(OC)c2)cc1OC"
  study.target: "SF-295 CNS"
  TGI: "> 100 µM"
- smiles.input: "CC(=O)CC(=O)Nn1c(-c2cccs2)nc2ccc(I)cc2c1=O"
  study.target: "SF-295 CNS"
  TGI: "> 100 µM"
- smiles.input: "CC(C)(C)C(=O)Cc1cc2c(cc1C(=O)O)S(=O)(=O)NC(C(C)(C)C)=C2"
  study.target: "SF-295 CNS"
  TGI: "> 100 µM"
- smiles.input: "COc1cc(C2C(C(=O)Nc3ccc(Cl)c(Cl)c3)=C(C)NC(C)=C2C(=O)Nc2ccc(Cl)c(Cl)c2)ccc1O"
  study.target: "SF-295 CNS"
  TGI: "34.5 µM"
- smiles.input: "C[N+](C)([O-])Cc1cccc(NC(=O)c2ccc(C(=O)Nc3cccc(C[N+](C)(C)[O-])c3)cc2)c1"
  study.target: "SF-295 CNS"
  TGI: "> 100 µM"
- smiles.input: "Cc1cn2cc(-c3ccncc3)nc2s1"
  study.target: "SF-295 CNS"
  TGI: "> 100 µM"
- smiles.input: "COC(=O)C1(C(=O)OC)CC2=C(S(=O)(=O)c3ccccc3)C[C@@H](C#N)[C@H]2C1"
  study.target: "SF-295 CNS"
  TGI: "> 100 µM"

###

TGI by entry:
Tested on: KM12 colon
procedure.summary: NCI tumour cell line growth inhibition, 48 h

- compound: "Cc1nn(C(=O)CC(=O)Nc2ccccc2Cl)c(C)c1N=Nc1ccccc1Cl"
  study.target: "KM12 colon"
  reading.qualifier: ">"
  TGI, µM: 100
- compound: "CNCc1ccc(C)c(NC(=O)c2ccc(Nc3nc(-c4ccccc4)c4ccccc4n3)cc2)c1"
  study.target: "KM12 colon"
  reading.qualifier: "="
  TGI, µM: 3.88
- compound: "COc1ccc(/C=C2\\CC(C)CC3C2=NN(C(C)=O)C3c2ccc(OC)c(OC)c2)cc1OC (stereo not given)"
  study.target: "KM12 colon"
  reading.qualifier: "="
  TGI, µM: 42.1
- compound: "C[C@H]1C(=O)C2=C[C@H]1CCC(=O)[C@]1(C)CCCC(C)(C)[C@H]1C[C@H]2O"
  study.target: "KM12 colon"
  reading.qualifier: "="
  TGI, µM: 52
- compound: "COc1cc2c(cc1C)NC(=O)/C2=C/c1c(Cl)n(C)c2ccccc12"
  study.target: "KM12 colon"
  reading.qualifier: "="
  TGI, µM: 16.6
